System: MCF7 breast
Experiment: NCI-60 one-dose screen, 48 h (100 = growth as untreated, 0 = no growth, -100 = all killed)
Conditions: 10 µM unless noted
This is part of a sample that, as a whole, favours compounds with a hit. Of some 83,000 tested, about 20% had one in any assay. Activity calls are given as the source filed them. The calls were made as follows: active = growth percent below 10; inactive = the rest.
Reported Property: growth

Data request: Which growth reading was recorded for the molecule Cc1ccc(S(=O)(=O)OC2COCOC2C(OS(=O)(=O)c2ccc(C)cc2)C2OCOCC2OS(=O)(=O)c2ccc(C)cc2)cc1 (stereo not drawn) ?
Data returned: 103% (inactive)

Data request: Which growth reading was recorded for the molecule O=S(=O)(NCCCNc1cc(-c2cn(-c3ccccc3)nc2-c2cccc(O)c2)ccn1)c1ccc(Br)cc1 ?
Data returned: 7.31% (active)

Data request: Which growth reading was recorded for the molecule COc1cccc(-c2nc3sccn3c2-c2ccnc(NCCCNS(=O)(=O)c3ccc(F)cc3)n2)c1 ?
Data returned: 39.9% (inactive)

Data request: Which growth reading was recorded for the molecule O=C(CNC(=O)c1cccc2ccccc12)Nc1ccccc1Oc1ccccc1 ?
Data returned: 11.3% (inactive)

Data request: Which growth reading was recorded for the molecule CC(=O)c1cc(C(=O)c2ccc3c(c2)Sc2ccccc2N3)c2cc(C)ccn12 ?
Data returned: 10.8% (inactive)

Data request: Which growth reading was recorded for the molecule CCC(C)NCC(=O)O (stereo not drawn) ?
Data returned: 103% (inactive)

Data request: Which growth reading was recorded for the molecule O=C(Cc1c(F)cccc1Cl)Nc1ccc(S(=O)(=O)Nc2ncccn2)cc1 ?
Data returned: 96.2% (inactive)

Data request: Which growth reading was recorded for the molecule N#Cc1ncc(-c2ccc(F)c(F)c2F)c(NC2CCCCCC2)n1 ?
Data returned: 83.5% (inactive)

Data request: Which growth reading was recorded for the molecule Nc1c(C(=O)Nc2cccc(C(F)(F)F)c2)sc2nc3c(cc12)C(O)CCC3 (stereo not drawn) ?
Data returned: 10.2% (inactive)

Data request: Which growth reading was recorded for the molecule CCCCC(N)(C(=O)O)C1CCCC1 (stereo not drawn) ?
Data returned: 91.4% (inactive)

Data request: Which growth reading was recorded for the molecule CCN1C(=O)N(CC)C2Nn3c(s/c(=C\c4cccc(F)c4)c3=O)=NC21 (stereo not drawn) ?
Data returned: 54.7% (inactive)

Data request: Which growth reading was recorded for the molecule CC(=O)C1CCC(C)=CC1=O (stereo not drawn) ?
Data returned: 88.4% (inactive)

Data request: Which growth reading was recorded for the molecule Nc1c(C(=O)Nc2cccc(C(F)(F)F)c2)sc2nc3c(cc12)CCCCCC3 ?
Data returned: 20.4% (inactive)
